Target: hα2C receptor (Homo sapiens)
Construct: expressed in transfected cells; host or cells: CHO cells, stably transfected; membrane preparation
Sequence (P18825 1-462): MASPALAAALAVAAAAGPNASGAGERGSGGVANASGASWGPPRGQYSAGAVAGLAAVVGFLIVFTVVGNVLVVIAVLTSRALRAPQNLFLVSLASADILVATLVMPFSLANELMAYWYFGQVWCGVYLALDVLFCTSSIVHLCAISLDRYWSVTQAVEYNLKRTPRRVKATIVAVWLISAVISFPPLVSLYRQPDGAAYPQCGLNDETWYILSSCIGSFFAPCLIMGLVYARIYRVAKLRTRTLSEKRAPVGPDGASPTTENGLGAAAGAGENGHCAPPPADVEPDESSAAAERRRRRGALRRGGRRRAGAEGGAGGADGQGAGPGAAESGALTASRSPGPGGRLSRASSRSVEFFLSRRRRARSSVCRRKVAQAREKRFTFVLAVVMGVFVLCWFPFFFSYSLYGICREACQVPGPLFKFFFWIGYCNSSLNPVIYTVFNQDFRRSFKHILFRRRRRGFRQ
Test: Radioligand binding experiment for α2C-adrenoceptor ([3H]raulwolscine, CHO cell membranes)
Details: [3H]raulwolscine binding, read-out: h-α2C pIC50 (converted)
Known IC50 of a selection of compounds
Give just the number in nM; leave the unit off.

Reference set (2 entries):
[
  {
    "compound": "C/C(=C\\c1ccccc1)CN1CCC(Nc2nccn(CC#CCN3C(=O)c4ccccc4C3=O)c2=O)CC1 [2-53]",
    "unitsOfMeasure": "nM",
    "experimentalValue": 3.16
  },
  {
    "compound": "C/C(=C\\c1ccccc1)CN1CCC(Nc2nccn(Cc3ccccn3)c2=O)CC1 [6-13]",
    "unitsOfMeasure": "nM",
    "experimentalValue": 31.6
  }
]

Supply reported IC50 belonging to this compound: COCCCn1ccnc(NC2CCN(C/C(C)=C/c3ccccc3)CC2)c1=O [3-6]
63.1

Supply reported IC50 belonging to this compound: CSCCn1ccnc(NC2CCN(C/C=C/c3ccccc3)CC2)c1=O [16-12]
316

Supply reported IC50 belonging to this compound: C/C(=C\c1ccccc1)CN1CCN(c2nccn(Cc3ccco3)c2=O)CC1 [13-1]
63.1

Hey, just so you know, these numbers are from patent US20090111801A1.
